Below, each of the binders is paired with its reported OD 1:5 dilution of supernatant value.
- Measured On: T1, KLH (key hole limpet hemocyanine)
- T1 construct: Control antigen coated at 1 µg/ml
- Method: ELISA, single point, KLH coated
- Protocol: Rabbit monoclonal antibodies were recombinantly expressed in HEK 293 cells. […] After intensive washing, the binding of the rabbit antibodies was detected using a sheep anti-rabbit IgG digoxigenin conjugated detection antibody (Chemicon AQ301D). After incubation with TMB at room temperature absorbance at 370 nm-492 nm was measured. […]
Report the figure in mE without appending any unit label.

# annotated cases, reported OD 1:5 dilution of supernatant shown
anti-Tau pS422 antibody Mab 086 (antibody, V domains shown, Rabbit monoclonal antibody, recombinantly expressed in HEK293 with rabbit kappa and gamma constant regions) VH: QSVEESGGRLVTPGTPLTLTCTVSGFSLSSNAINWVRQAPGKGLEWIGYIAVSGNTYYASWAKGRFTISKASTTVDLKMTSPTAEDTGTYFCGKSNIWGPGTLVTVSL VL: QVLTQTTSPVSAAVGSTVTISCQSSQSVRTNKLAWFQQKPGQPPKRLIYSASTLDFGVPSRFSASGSGTQFTLTISDVQCDDAATYYCLGYFDCSIADCVAFGGGTEVVVK = 0.046
anti-Tau pS422 antibody Mab 020 (antibody, V domains shown, Rabbit monoclonal antibody, recombinantly expressed in HEK293 with rabbit kappa and gamma constant regions) VH: QSVEESGGRLVTPGTPLTLTCKVSGFSLSSYDMNWVRQAPGKGLEWVGAISTGGNTYYASWAKGRFTISKTSTTVTLTITSPTTADTATYFCARGSSIWGPGTLVTVSL VL: QVLTQTASPVSAAVGSTVTINCQASQSVYKNNYLRWYQQKPGQPPKRLIYTASTLASGVSSRFKGSGSGTQFTLTISDVQCDDAATYYCLGGYDCNSADCWAFGGGTEVVVK = 0.016
anti-Tau pS422 antibody Mab 019 (antibody, V domains shown, Rabbit monoclonal antibody, recombinantly expressed in HEK293 with rabbit kappa and gamma constant regions) VH: QSVEESGGRLVTPGTPLTLTCTVSGIDLSSYTMNWVRQAPGKGLDWIGFINSGGYTSYASWTRGRFTISKTSTTVDLRITSPTTEDTATYFCARYGGGSGFDLWGPGTLVTVSS VL: QVLTQTASSVSAAVGGTVTINCQSSQSVYNNRLAWYQQKPGQPPKLLIYKASTLASGVPSRFKGSGSGTQFTLTISDLECDDAATYYCAGGYINIFAFGGGTEVVVK = 0.026

Exercise: Using the record for anti-Tau pS422 antibody Mab 005 (antibody, V domains shown, Rabbit monoclonal antibody, recombinantly expressed in HEK293 with rabbit kappa and gamma constant regions) VH: QSVEESGGRLVTPGTPLTLTCTVSGLSLSSNAINWVRQAPGKGLEWIGYISTSGNTYYASWAKGRFTISKTSTTVDLKITSPTTEDTATYFCGRGDLWGPGTLVTVSS VL: QVLTQTASPVSAAVGSTVTINCQASQSVYKNNYLAWFQQKPGQPPKRLIYSASTLASGVSSRFKGSGSGTQFTLTISDVQCDDAATYYCLGSCDSSSNNCVAFGGGTEVVVK , report its OD 1:5 dilution of supernatant.
Key: 0.026
